Reported peptide microarray binding signal values for the following binders.
Molecular target: T1, HaloTag-ATRX ADD domain (163-292)
T1 chain: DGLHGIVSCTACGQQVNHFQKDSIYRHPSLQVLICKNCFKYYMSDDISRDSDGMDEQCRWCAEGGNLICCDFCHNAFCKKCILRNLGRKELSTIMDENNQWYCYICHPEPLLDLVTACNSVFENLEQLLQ
Experiment: peptide microarray binding signal (635 nm), min-max normalized on array (fraction of array maximum); higher = stronger binding
Settings: peptide region: Unmod H2B variant; binder concentration: 500 nM
REPORTED_PROPERTY: peptide microarray binding signal

> print(dat)
                                     binder  numeric.readout
1  APKKGSKKAITKA [Unmod H2B variant A P K K G S K K A I T K A]          0.00971
2  PEPAKSAPAPKKG [Unmod H2B variant P E P A K S A P A P K K G]          0.00971
3  KVLKQVHPDTGIS [Unmod H2B variant K V L K Q V H P D T G I S]          0.00971

Values compiled from the supplement of paper PMC4022240.
